- Target system: HDAC1 (Homo sapiens, UniProt Q13547)
- Sequence (Q13547 whole entry, species assumed): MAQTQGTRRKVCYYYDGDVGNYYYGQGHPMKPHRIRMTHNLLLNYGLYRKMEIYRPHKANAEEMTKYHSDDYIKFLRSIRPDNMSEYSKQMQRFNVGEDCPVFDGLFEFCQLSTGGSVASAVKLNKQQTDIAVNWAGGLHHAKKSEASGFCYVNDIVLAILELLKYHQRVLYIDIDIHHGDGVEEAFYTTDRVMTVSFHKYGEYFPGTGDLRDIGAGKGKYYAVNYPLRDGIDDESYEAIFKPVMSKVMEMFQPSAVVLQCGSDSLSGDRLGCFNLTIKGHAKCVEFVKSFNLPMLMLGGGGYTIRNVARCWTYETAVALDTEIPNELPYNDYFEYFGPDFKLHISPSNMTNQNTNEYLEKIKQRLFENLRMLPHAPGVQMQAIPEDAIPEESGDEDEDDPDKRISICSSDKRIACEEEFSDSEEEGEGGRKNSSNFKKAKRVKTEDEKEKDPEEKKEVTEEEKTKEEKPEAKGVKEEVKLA
- Method notes: HDAC biochemical activity measurement (fluorescent substrate deacetylation);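 on IC50 HDAC1: fluorogenic acetyl-lysine substrate (20 µM) deacetylated by HDAC1, then developer releases fluorophore read at 360 nm excitation and 460 nm emission, inhibitor incubated 30 min at 37 °C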
- Condition label: HDAC1; 37° C. 30 minutes; read-out: IC50 HDAC1
Measurement kind: IC50 (nM)

Worked set:
>  <Compound>
C/C=C1\NC(=O)c2nc(ccc2F)CNC(=O)C[C@@H](/C=C/CCSC(C)=O)OC(=O)[C@H](Cc2ccc(O)cc2)NC1=O [Compound 81]

>  <Target system>
HDAC1 (Homo sapiens, UniProt Q13547)

>  <IC50 / nM>
37

$$$$
>  <Compound>
C/C=C1\NC(=O)c2cccc(n2)CNC(=O)C[C@@H](/C=C/CCSC(C)=O)OC(=O)[C@H](CCCCNC(=O)OCC2c3ccccc3-c3ccccc32)NC1=O [Compound 16]

>  <Target system>
HDAC1 (Homo sapiens, UniProt Q13547)

>  <IC50 / nM>
181

$$$$
>  <Compound>
C/C=C1\NC(=O)c2cccc(n2)CNC(=O)C[C@@H](/C=C/CCSC(=O)CCCCC)OC(=O)[C@H](C(C)C)NC1=O [Compound 3]

>  <Target system>
HDAC1 (Homo sapiens, UniProt Q13547)

>  <IC50 / nM>
171

$$$$

A = C/C=C1\NC(=O)c2ccc(F)c(n2)CNC(=O)C[C@@H](/C=C/CCSC(=O)CCCCCCC)OC(=O)[C@H](C)NC1=O [Example 62]
B = C/C=C1\NC(=O)c2cc(SC)cc(n2)CNC(=O)C[C@@H](/C=C/CCSC(C)=O)OC(=O)[C@H](C(C)C)NC1=O [Compound 224]
C = C/C=C1\NC(=O)c2cccc(n2)CNC(=O)C[C@@H](/C=C/CCSC(=O)CCC)OC(=O)[C@H](C(C)C)NC1=O [Compound 5]
[in] Rank order required: IC50, descending. I'd appreciate it if you listed the labels in the requested order.
[out] B, C, A
(B: 184 nM, C: 74 nM, A: 46 nM)

---

Assay read-out IC50; system under study: HDAC8 (Homo sapiens).
Sequence (Q9BY41 whole entry, species assumed): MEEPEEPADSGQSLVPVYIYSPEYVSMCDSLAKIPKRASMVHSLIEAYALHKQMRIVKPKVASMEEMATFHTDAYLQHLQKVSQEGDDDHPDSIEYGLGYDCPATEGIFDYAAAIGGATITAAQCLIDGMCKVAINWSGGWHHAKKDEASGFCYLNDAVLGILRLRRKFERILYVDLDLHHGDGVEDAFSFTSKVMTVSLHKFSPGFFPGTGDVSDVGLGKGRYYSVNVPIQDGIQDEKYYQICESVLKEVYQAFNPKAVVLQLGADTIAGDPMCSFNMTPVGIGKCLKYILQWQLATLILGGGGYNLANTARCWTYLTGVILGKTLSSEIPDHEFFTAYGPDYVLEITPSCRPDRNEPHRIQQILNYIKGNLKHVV
Measurement kind: IC50 (nM)

>  <Molecule>
C/C=C1\NC(=O)c2nc(F)cc(n2)CNC(=O)C[C@@H](/C=C/CCSC(C)=O)OC(=O)[C@H](C(C)C)NC1=O

>  <Target system>
HDAC8 (Homo sapiens)

>  <IC50 / nM>
61

$$$$
>  <Molecule>
C/C=C1\NC(=O)c2ccc(F)c(n2)CNC(=O)C[C@@H](/C=C/CCSC(=O)CCCCCCC)OC(=O)[C@H](Cc2ccccc2)NC1=O

>  <Target system>
HDAC8 (Homo sapiens)

>  <IC50 / nM>
41

$$$$
>  <Molecule>
CC(=O)SCC/C=C/[C@@H]1CC(=O)NCc2cc(F)cc(n2)C(=O)NC(=C(C)C)C(=O)N[C@@H](C(C)C)C(=O)O1

>  <Target system>
HDAC8 (Homo sapiens)

>  <IC50 / nM>
43

$$$$
>  <Molecule>
C/C=C1\NC(=O)c2nc(ccc2F)CNC(=O)C[C@@H](/C=C/CCSC(=O)CCCCCCC)OC(=O)[C@H](C)NC1=O

>  <Target system>
HDAC8 (Homo sapiens)

>  <IC50 / nM>
53

$$$$
>  <Molecule>
C/C=C1\NC(=O)c2cccc(n2)CCNC(=O)C[C@@H](/C=C/CCS)OC(=O)[C@H](C(C)C)NC1=O

>  <Target system>
HDAC8 (Homo sapiens)

>  <IC50 / nM>
43

$$$$

---

- System: DU145 (human prostate cancer cells)
- Method notes: MTT cancer cell growth inhibition
- Format: cell-based
- Condition label: Homo sapiens, DU-145, 72 h, MTT, 72 hours; present invention; read-out: GI50 Du145, a
Measurement kind: GI50 (nM)

Worked set:
>  <Compound>
C/C=C1\NC(=O)c2nc(ccc2C)CNC(=O)C[C@@H](/C=C/CCSC(=O)CCCCCCC)OC(=O)[C@H](C(C)C)NC1=O

>  <GI50 (nM)>
130

$$$$
>  <Compound>
C=C1NC(=O)c2cccc(n2)CNC(=O)C[C@@H](/C=C/CCSC(=O)CCCCCCC)OC(=O)[C@H](C(C)C)NC1=O

>  <GI50 (nM)>
950

$$$$
>  <Compound>
C/C=C1\NC(=O)c2cccc(n2)CNC(=O)C[C@@H](/C=C/CCSC(=O)CCCCCCC)OC(=O)[C@H](CCSC)NC1=O

>  <GI50 (nM)>
4

$$$$
>  <Compound>
CCCCCCCC(=O)SCC/C=C/[C@@H]1CC(=O)NCc2cccc(n2)C(=O)NC(CC)C(=O)N[C@@H](C(C)C)C(=O)O1 (stereo partly shown)

>  <GI50 (nM)>
130

$$$$
>  <Compound>
C/C=C1\NC(=O)c2cccc(n2)CNC(=O)C[C@@H](/C=C/CCSC(=O)CCCCCCC)OC(=O)[C@@H](C)NC1=O

>  <GI50 (nM)>
91

$$$$

1 = CCCCCCCC(=O)SCC/C=C/[C@@H]1CC(=O)NCc2cccc(n2)C(=O)NCC(=O)N[C@@H](C(C)C)C(=O)O1
2 = C/C=C1\NC(=O)c2cccc(n2)CNC(=O)C[C@@H](/C=C/CCSC(C)=O)OC(=O)[C@H](C(C)C)NC1=O
[in] Between 1 and 2 , which one shows the larger GI50 value? # reply format: chosen label
[out] 1

---

- System: K562 (human leukemia cells)
- Method notes: MTT cancer cell growth inhibition
- Type: cell-based
- Condition label: Homo sapiens, K562, 72 h, MTT, 72 hours incubation, K562 cells; read-out: GI50 K562
Measurement kind: GI50 (nM)

Worked set:
>  <Molecule>
C/C=C1\NC(=O)c2cc(F)cc(n2)CNC(=O)C[C@@H](/C=C/CCSC(C)=O)OC(=O)[C@H](Cc2ccc(O)cc2)NC1=O

>  <Target system>
K562 (human leukemia cells)

>  <GI50, nM>
36

$$$$
>  <Molecule>
C/C=C1\NC(=O)c2cccc(n2)CCNC(=O)C[C@@H](/C=C/CCSC(C)=O)OC(=O)[C@H](C(C)C)NC1=O

>  <Target system>
K562 (human leukemia cells)

>  <GI50, nM>
17

$$$$
>  <Molecule>
C/C=C1\NC(=O)c2cc(F)cc(n2)CNC(=O)C[C@@H](/C=C/CCSC(=O)CCCCCCC)OC(=O)[C@H](C)NC1=O

>  <Target system>
K562 (human leukemia cells)

>  <GI50, nM>
34

$$$$
>  <Molecule>
C/C=C1\NC(=O)c2nc(ccc2SC)CNC(=O)C[C@@H](/C=C/CCSC(=O)CCCCCCC)OC(=O)[C@H](Cc2ccccc2)NC1=O

>  <Target system>
K562 (human leukemia cells)

>  <GI50, nM>
32

$$$$

a = C/C=C1\NC(=O)c2ccc(F)c(n2)CNC(=O)C[C@@H](/C=C/CCSC(C)=O)OC(=O)[C@H](C)NC1=O
b = C/C=C1\NC(=O)c2cccc(n2)CNC(=O)C[C@@H](/C=C/CCSC(=O)CCCCCCC)OC(=O)[C@H](C(C)(C)C)NC1=O
[in] Please indicate which item has the smaller measured GI50: a versus b # reply format: chosen label
[out] a
(a: 29 nM, b: 69 nM)

---

- Test system: KBM-5 (human chronic myelogenous leukemia)
- Method notes: MTT cancer cell growth inhibition
- Format: cell-based
- Condition label: MTT, 72 hours incubation, KBM-5 cells; read-out: GI50 KBM-5
Measurement kind: GI50 (nM)

I = C/C=C1\NC(=O)c2ccc(SC)c(n2)CNC(=O)C[C@@H](/C=C/CCSC(C)=O)OC(=O)[C@H](C(C)C)NC1=O
II = C/C=C1\NC(=O)c2nc(F)cc(n2)CNC(=O)C[C@@H](/C=C/CCSC(C)=O)OC(=O)[C@H](C(C)C)NC1=O
[in] Please indicate which item has the smaller measured GI50: I versus II # reply format: chosen label
[out] II

a = C/C=C1\NC(=O)c2ncc(SC)c(n2)CNC(=O)C[C@@H](/C=C/CCSC(C)=O)OC(=O)[C@H](C(C)C)NC1=O
b = C/C=C1\NC(=O)c2cc(SC)cc(n2)CNC(=O)C[C@@H](/C=C/CCSC(C)=O)OC(=O)[C@H](C)NC1=O
[in] Between a and b , which one shows the larger GI50 value? # reply format: chosen label
[out] b

P = C/C=C1\NC(=O)c2nc(cc(SC)n2)CNC(=O)C[C@@H](/C=C/CCSC(C)=O)OC(=O)[C@H](C(C)C)NC1=O
Q = C/C=C1\NC(=O)c2nc(ccc2SC)CNC(=O)C[C@@H](/C=C/CCSC(C)=O)OC(=O)[C@H](C)NC1=O
[in] Between P and Q , which one shows the larger GI50 value? # reply format: chosen label
[out] Q
(Q: 78 nM, P: 38 nM)

---

- System: SGC-7901 (human gastric cancer cells)
- Method notes: MTT cancer cell growth inhibition
- Type: cell-based
- Condition label: Homo sapiens, SGC-7901, 72 h, MTT, 72 hours incubation, SGC-7901 cells; read-out: GI50 SGC-7901
Measurement kind: GI50 (nM)

Worked set:
>  <Molecule>
C/C=C1\NC(=O)c2cc(F)cc(n2)CNC(=O)C[C@@H](/C=C/CCSC=O)OC(=O)[C@H](C(C)C)NC1=O

>  <Target system>
SGC-7901 (human gastric cancer cells)

>  <GI50, nM>
51

$$$$
>  <Molecule>
C/C=C1\NC(=O)c2ccc(SC)c(n2)CCNC(=O)C[C@@H](/C=C/CCSC(C)=O)OC(=O)[C@H](C(C)C)NC1=O

>  <Target system>
SGC-7901 (human gastric cancer cells)

>  <GI50, nM>
41

$$$$

a = C/C=C1\NC(=O)c2cccc(n2)CNC(=O)C[C@@H](/C=C/CCSC(C)=O)OC(=O)[C@H](Cc2ccc(O)cc2)NC1=O
b = C/C=C1\NC(=O)c2nc(ccc2SC)CNC(=O)C[C@@H](/C=C/CCSC(=O)CCCCCCC)OC(=O)[C@H](CC)NC1=O
[in] Please indicate which item has the smaller measured GI50: a versus b # reply format: chosen label
[out] b
(b: 28 nM, a: 42 nM)

P = C=C1NC(=O)c2ccc(F)c(n2)CNC(=O)C[C@@H](/C=C/CCSC(C)=O)OC(=O)[C@H](C)NC1=O
Q = C/C=C1\NC(=O)c2nc(F)cc(n2)CNC(=O)C[C@@H](/C=C/CCSC(C)=O)OC(=O)[C@H](C(C)C)NC1=O
[in] Please indicate which item has the smaller measured GI50: P versus Q # reply format: chosen label
[out] Q
(Q: 37 nM, P: 57 nM)
